target: Tyrosine-protein kinase JAK2 (Homo sapiens)
Sequence (O60674 whole entry): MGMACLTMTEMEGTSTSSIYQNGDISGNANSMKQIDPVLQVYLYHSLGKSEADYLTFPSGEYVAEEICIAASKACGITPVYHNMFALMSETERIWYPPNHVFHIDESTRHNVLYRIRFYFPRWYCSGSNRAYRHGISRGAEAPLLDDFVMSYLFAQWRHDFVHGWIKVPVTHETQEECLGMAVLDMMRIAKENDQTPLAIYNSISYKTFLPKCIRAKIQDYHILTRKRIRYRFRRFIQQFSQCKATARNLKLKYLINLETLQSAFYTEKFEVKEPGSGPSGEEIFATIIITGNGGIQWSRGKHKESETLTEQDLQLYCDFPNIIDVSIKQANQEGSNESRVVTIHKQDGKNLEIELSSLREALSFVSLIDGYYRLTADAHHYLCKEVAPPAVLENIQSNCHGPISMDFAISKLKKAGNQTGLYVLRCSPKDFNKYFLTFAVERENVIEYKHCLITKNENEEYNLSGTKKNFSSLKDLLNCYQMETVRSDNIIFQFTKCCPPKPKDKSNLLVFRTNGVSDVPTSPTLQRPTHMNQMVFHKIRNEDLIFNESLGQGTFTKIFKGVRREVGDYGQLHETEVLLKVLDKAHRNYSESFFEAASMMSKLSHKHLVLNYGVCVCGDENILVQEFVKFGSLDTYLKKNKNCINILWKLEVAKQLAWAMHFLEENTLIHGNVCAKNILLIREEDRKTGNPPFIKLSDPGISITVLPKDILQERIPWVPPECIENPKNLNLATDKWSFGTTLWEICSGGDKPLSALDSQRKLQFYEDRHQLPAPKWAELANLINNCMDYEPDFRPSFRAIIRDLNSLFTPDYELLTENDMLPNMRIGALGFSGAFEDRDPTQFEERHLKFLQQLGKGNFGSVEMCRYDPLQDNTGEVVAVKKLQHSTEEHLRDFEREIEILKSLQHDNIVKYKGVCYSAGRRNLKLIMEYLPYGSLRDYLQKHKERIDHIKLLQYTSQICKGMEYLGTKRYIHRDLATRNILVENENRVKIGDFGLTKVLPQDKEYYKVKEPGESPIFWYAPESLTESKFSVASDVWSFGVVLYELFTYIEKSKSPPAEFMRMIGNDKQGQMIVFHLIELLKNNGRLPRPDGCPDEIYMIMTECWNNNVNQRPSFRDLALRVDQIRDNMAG
pIC50: −log10 of the molar value.
Parameter Measured: pIC50

For reference, reported pIC50 for "CSc1ccccc1Nc1nc(N2CCN(C3CCNCC3)CC2)nc2c(NCC3CC3)ncnc12" stands at > 5.00

====

molecular target: Serine/threonine-protein kinase 26 (Homo sapiens, UniProt Q9P289)
Sequence (Q9P289 whole entry): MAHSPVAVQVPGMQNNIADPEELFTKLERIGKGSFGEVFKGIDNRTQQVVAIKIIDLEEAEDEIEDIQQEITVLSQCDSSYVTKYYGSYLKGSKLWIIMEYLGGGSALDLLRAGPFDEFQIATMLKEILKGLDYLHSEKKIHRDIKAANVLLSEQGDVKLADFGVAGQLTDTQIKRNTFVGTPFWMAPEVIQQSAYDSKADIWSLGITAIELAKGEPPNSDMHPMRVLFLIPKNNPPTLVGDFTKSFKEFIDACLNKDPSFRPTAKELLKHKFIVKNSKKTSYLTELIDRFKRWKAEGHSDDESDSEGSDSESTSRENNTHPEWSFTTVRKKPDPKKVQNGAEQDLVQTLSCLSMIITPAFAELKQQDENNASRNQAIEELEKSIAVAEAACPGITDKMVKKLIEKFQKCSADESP
Parameter Measured: IC50

Kindly note the recorded IC50 for "CSc1ccccc1Nc1nc(N2CCN(C3CCNCC3)CC2)nc2c(NCC3CC3)ncnc12" , which is < 10 µM

====

Molecular target: Ketohexokinase (Homo sapiens, UniProt P50053)
Sequence (P50053 whole entry): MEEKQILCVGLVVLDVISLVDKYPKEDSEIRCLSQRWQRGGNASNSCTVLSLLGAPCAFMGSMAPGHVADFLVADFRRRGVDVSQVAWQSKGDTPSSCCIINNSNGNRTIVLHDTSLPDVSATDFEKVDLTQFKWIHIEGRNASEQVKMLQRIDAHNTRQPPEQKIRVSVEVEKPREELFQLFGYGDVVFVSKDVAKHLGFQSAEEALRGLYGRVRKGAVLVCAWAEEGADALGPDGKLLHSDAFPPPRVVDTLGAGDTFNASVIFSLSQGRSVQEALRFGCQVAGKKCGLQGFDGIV
Assay: Inhibition of recombinant human hepatic KHKC
// thresholds for IC50 classes: range 1 = under 0.04 µM, range 2 = from 0.04 µM up to 0.1 µM, range 3 = 0.1 µM and over

Example cases with answers are listed next.
Molecule	Class Assignment
CSc1ccccc1Nc1nc(N2CCNC(C)C2)nc2c(NCC3CC3)ncnc12 (configuration not stated)	range 2
CSc1ccccc1Nc1nc(N2CCC3(CCNC3)C2)nc2c(NCC3CC3)ncnc12 (configuration not stated)	range 2
CSc1ccccc1Nc1nc(N2CCC3(CNC3)C2)nc2c(NCC3CC3)ncnc12	range 1

Input "CSc1ccccc1Nc1nc(N2CCNc3ccccc3C2)nc2c(NCC3CC3)ncnc12" ; output its category
range 3

Sort into band: "CSc1ccccc1Nc1nc(N2C[C@@H]3C[C@H]2CN3)nc2c(NCC3CC3)ncnc12"
range 3

Could you tell me which band "CSc1ccccc1Nc1nc(N2C[C@@H](C)N[C@@H](C)C2)nc2c(NCC3CC3)ncnc12" belongs to?
range 3

Field: class (IC50) — entry: "CSc1ccccc1Nc1nc(N2CCC(N3CCN(C)CC3)CC2)nc2c(NCC3CC3)ncnc12"
range 1

Class for "CSc1ccccc1Nc1nc(N(C)CC2CCNCC2)nc2c(NCC3CC3)ncnc12" ?
range 2

Sort CSc1ccccc1Nc1nc(N2C3CCC2CC(N)C3)nc2c(NCC3CC3)ncnc12 (configuration not stated) into one of the categories.
range 3

Which bin should I file "CSc1ccccc1Nc1nc(N2CCC[C@@H]3CNC[C@@H]32)nc2c(NCC3CC3)ncnc12" under?
range 3

Which band does "CSc1ccccc1Nc1nc(N2CCC3(CCNCC3)CC2)nc2c(NCC3CC3)ncnc12" fall in?
range 1

Entry "CSc1ccccc1Nc1nc(N2CCNC[C@H]2C)nc2c(NCC3CC3)ncnc12" belongs to which category?
range 2

Category lookup for the molecule "CSc1ccccc1Nc1nc(N2CCC(N3CCNCC3)CC2)nc2c(NCC3CC3)ncnc12"
range 1
